Attribution: patent US11040047B2

Please respond with reported pEC50 for every item in the list.
Test system: human cytomegalovirus (HCMV) strain Davis
experiment-summary: Inhibition of virus-induced cytopathicity, HCMV Davis, in HEL fibroblasts
Type: cell-based
stated-conditions: Human betaherpesvirus 5, HEL, read-out: Antiviral activity EC50 HCMV Davis strain
Numbers only, as −log10 of the molar value.

Use the examples below as a reference point.
1. CCCCCOC(=O)C[C@H](NP1(=O)CO[C@@H](Cn2ccc(N)nc2=O)CO1)C(=O)OCCCCC (stereo partly shown); 7.72
2. CCCCCOC(=O)CC[C@H](NP1(=O)CO[C@@H](Cn2cnc3c(N)ncnc32)CO1)C(=O)OCCCCC (stereo partly shown); 8.12

Give me pEC50 for each of these molecules, listed below.
1. CCCCCOC(=O)[C@H](CCSC)NP1(=O)CO[C@@H](Cn2cnc3c(N)ncnc32)CO1 (stereo partly shown)
2. CCCCCOC(=O)[C@@H](NP1(=O)CO[C@@H](Cn2cnc3c(N)ncnc32)CO1)[C@@H](C)CC (stereo partly shown)

### Response
1. 7.54
2. 8.19

###

experiment-summary: in vitro
stated-conditions: human, HEL cells
Assign CC50 at 3 days to each entry below.

Known results for molecules:
1) CCCCCOC(=O)C[C@H](NP1(=O)CO[C@@H](Cn2ccc(N)nc2=O)CO1)C(=O)OCCCCC (stereo partly drawn); 33.1 µM
2) Nc1ccn(C[C@@H](CO)OCP(=O)(O)O)c(=O)n1 [Cidofovir, reference compound]; > 358 µM

Consider the additional molecule presented here.
### Prompt Identify measured CC50 at 3 days associated with CCCCCOC(=O)C[C@H](NP1(=O)CO[C@H](Cn2ccc(N)nc2=O)CO1)C(=O)OCCCCC (stereo partly drawn)
### Response > 194 µM

###

System: HEL 299 cells
stated-conditions: human
measured-metric: Cytotoxicity MCC

Worked set:
1. CCCCCOC(=O)C[C@H](NP1(=O)CO[C@@H](Cn2cnc3c(N)ncnc32)CO1)C(=O)OCCCCC (some centres unmarked); ≥20
2. CCCCCOC(=O)[C@H](CC(C)C)NP1(=O)CO[C@@H](Cn2cnc3c(N)ncnc32)CO1 (some centres unmarked); ≥0.8
3. Nc1ccn(C[C@@H](CO)OCP(=O)(O)O)c(=O)n1 [Cidofovir, reference compound]; >250
4. O=c1[nH]c(=O)n([C@H]2C[C@H](O)[C@@H](CO)O2)cc1/C=C/Br [Brivudin, reference compound]; >250

Next, consider the following molecule.
### Prompt Identify measured Cytotoxicity MCC associated with CCCCCOC(=O)[C@@H](NP(=O)(CO[C@H](CO)Cn1cnc2c(N)ncnc21)N[C@H](C(=O)OCCCCC)C(C)C)C(C)C
### Response ≥20

###

Tested on: HEL cells
experiment-summary: Cytotoxicity, minimum cytotoxic concentration (cell morphology) in HEL cells
stated-conditions: Table 1; minimum concentration causing microscopically detectable alteration of cell morphology
measured-metric: Cytotoxicity HEL cells MCC

1) Nc1ccn(C[C@@H](CO)OCP(=O)(O)O)c(=O)n1 [Cidofovir, reference compound]; >71.6
2) CCCCCOC(=O)C[C@H](NP1(=O)CO[C@@H](Cn2cnc3c(N)ncnc32)CO1)C(=O)OCCCCC (stereo partly shown); 13.6

Parameter requested: Cytotoxicity HEL cells MCC. Apply to each item below.
1. O=c1[nH]c(=O)n([C@H]2C[C@H](O)[C@@H](CO)O2)cc1/C=C/Br [Brivudin, reference compound]
2. Nc1nc(O)c2ncn(COC(CO)CO)c2n1 [Ganciclovir, reference compound]

### Response
>30.0
>39.2

###

Tested on: human cytomegalovirus (HCMV) strain AD-169
experiment-summary: Inhibition of virus-induced cytopathicity, HCMV AD-169, in HEL fibroblasts
Type: cell-based
stated-conditions: Human betaherpesvirus 5, AD169, HEL, read-out: Antiviral activity EC50 HCMV AD-169 strain
measured-metric: EC50 (nM)
Answers are plain numbers, in nM.

Please review the following examples before continuing.
1. CCCCCOC(=O)[C@H](Cc1ccccc1)NP1(=O)CO[C@@H](Cn2cnc3c(N)ncnc32)CO1 (stereo partly shown); 31
2. CCCCCOC(=O)C[C@H](NP1(=O)CO[C@@H](Cn2ccc(N)nc2=O)CO1)C(=O)OCCCCC (stereo partly shown); 12
3. CCCCCOC(=O)[C@H](C)NP1(=O)CO[C@@H](Cn2cnc3c(N)ncnc32)CO1 (stereo partly shown); 64

In the following, a different compound is considered.
### Prompt Give recorded EC50. CCCCCOC(=O)[C@H](CC(C)C)NP1(=O)CO[C@@H](Cn2cnc3c(N)ncnc32)CO1 (stereo partly shown)
### Response 5.7

###

System: Vaccinia virus (strain Lederle, ATCC VR-118)
experiment-summary: microbe, parasite or virus in culture
Format: cell-based
stated-conditions: Orthopoxvirus vaccinia, HEL 299, 96 h, read-out: Antiviral activity EC50 Vaccinia virus
Please go through the items and note down their log10(EC50).
All values: log10 EC50 [nM].

Answered cases to consult:
1) CCCCCOC(=O)[C@@H](NP(=O)(CO[C@H](CO)Cn1cnc2c(N)ncnc21)N[C@H](C(=O)OCCCCC)C(C)C)C(C)C; 1.63
2) Nc1ccn(C[C@@H](CO)OCP(=O)(O)O)c(=O)n1 [Cidofovir, reference compound]; 4.70
3) CCCCCOC(=O)[C@H](CC(C)C)NP1(=O)CO[C@@H](Cn2cnc3c(N)ncnc32)CO1 (some centres unmarked); 1.89
4) CCCCCOC(=O)C[C@H](NP1(=O)CO[C@@H](Cn2cnc3c(N)ncnc32)CO1)C(=O)OCCCCC (some centres unmarked); 1.89

Moving on to the next molecule.
### Prompt Please give the documented log10(EC50) of O=c1[nH]c(=O)n([C@H]2C[C@H](O)[C@@H](CO)O2)cc1/C=C/Br [Brivudin, reference compound]
### Response 3.76

###

experiment-summary: in vitro
stated-conditions: human
Field 'label' (enum: True / False). Set to True when CC50 at 3 days is strictly under 3 µM; else False.

# count of solved cases: 5
1. CCCCCOC(=O)[C@@H](NP1(=O)CO[C@@H](Cn2cnc3c(N)ncnc32)CO1)[C@@H](C)CC (stereo partly shown); False
2. CCCCCOC(=O)C[C@H](NP1(=O)CO[C@@H](Cn2cnc3c(N)ncnc32)CO1)C(=O)OCCCCC (stereo partly shown); True
3. CCCCCOC(=O)[C@H](CC(C)C)NP1(=O)CO[C@@H](Cn2cnc3c(N)ncnc32)CO1 (stereo partly shown); True
4. CCCCCOC(=O)[C@@H](NP(=O)(CO[C@H](CO)Cn1cnc2c(N)ncnc21)N[C@H](C(=O)OCCCCC)C(C)C)C(C)C; True
5. CCCCCOC(=O)C[C@H](NP1(=O)CO[C@H](Cn2cnc3c(N)ncnc32)CO1)C(=O)OCCCCC (stereo partly shown); False

### Prompt Criterion: CC50 at 3 days strictly below 3 µM. Is it met by CCCCCOC(=O)[C@H](CCSC)NP1(=O)CO[C@@H](Cn2cnc3c(N)ncnc32)CO1 (stereo partly shown) ?
### Response False

### Prompt Just wondering, is CC50 at 3 days of CCCCCOC(=O)CC[C@H](NP1(=O)CO[C@@H](Cn2cnc3c(N)ncnc32)CO1)C(=O)OCCCCC (stereo partly shown) below 3 µM?
### Response True

###

Please respond with reported log10 of EC50 for every item in the list.
Tested on: human cytomegalovirus (HCMV) strain Davis
experiment-summary: Inhibition of virus-induced cytopathicity, HCMV Davis, in HEL fibroblasts
Type: cell-based
stated-conditions: Human betaherpesvirus 5, HEL, read-out: Antiviral activity EC50 HCMV Davis strain
In plain terms, each number is the log10 of measured EC50 in nM.

Sample answers from the record:
1. CCCCCOC(=O)C[C@H](NP1(=O)CO[C@@H](Cn2cnc3c(N)ncnc32)CO1)C(=O)OCCCCC (some centres unmarked); 0.95
2. CCCCCOC(=O)[C@H](CC(C)C)NP1(=O)CO[C@@H](Cn2cnc3c(N)ncnc32)CO1 (some centres unmarked); 0.58
3. CCCCCOC(=O)C[C@H](NP1(=O)CO[C@H](Cn2cnc3c(N)ncnc32)CO1)C(=O)OCCCCC (some centres unmarked); 3.21
4. CCCCCOC(=O)[C@H](C)NP1(=O)CO[C@@H](Cn2cnc3c(N)ncnc32)CO1 (some centres unmarked); 1.81
5. CCCCCOC(=O)[C@@H](NP(=O)(CO[C@H](CO)Cn1cnc2c(N)ncnc21)N[C@H](C(=O)OCCCCC)C(C)C)C(C)C; 1.86
6. CCCCCOC(=O)C[C@H](NP1(=O)CO[C@H](Cn2ccc(N)nc2=O)CO1)C(=O)OCCCCC (some centres unmarked); 3.55
7. CCCCCOC(=O)[C@@H](NP1(=O)CO[C@@H](Cn2cnc3c(N)ncnc32)CO1)C(C)C (some centres unmarked); 0.68

### Prompt Provide one value: measured log10 of EC50 of CCCCCOC(=O)[C@H](Cc1ccccc1)NP1(=O)CO[C@@H](Cn2cnc3c(N)ncnc32)CO1 (some centres unmarked)
### Response 1.23
